measurement target: A1AR (Homo sapiens, UniProt P30542)
Sequence (P30542 whole entry): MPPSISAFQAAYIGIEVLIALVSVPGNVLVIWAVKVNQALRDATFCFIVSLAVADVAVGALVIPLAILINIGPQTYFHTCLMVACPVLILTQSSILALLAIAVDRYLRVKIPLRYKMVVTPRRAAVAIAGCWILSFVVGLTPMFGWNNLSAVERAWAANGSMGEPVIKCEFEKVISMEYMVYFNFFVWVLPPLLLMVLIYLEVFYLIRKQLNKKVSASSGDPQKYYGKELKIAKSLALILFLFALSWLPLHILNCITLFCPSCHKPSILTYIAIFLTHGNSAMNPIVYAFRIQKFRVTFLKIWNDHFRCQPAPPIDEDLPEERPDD
protocol details: cAMP functional assay, CHO-A1 cells
Format: cell-based
Parameters: host or cells: CHO-A1 cells
run conditions: antagonism of NECA effect on cAMP, 5.08 × 10^−3 to 100 μM, read-out: cAMP assays (pIC50) A1 (converted)
Please note: IC50 exactly at 0.6 µM is no. Only values below 0.6 µM get yes.

INSERT INTO assay_data (compound, label_class) VALUES
  ('Nc1nc(-c2ccccc2Cl)nn1C(=O)c1cccc(Cl)c1 [Compound C9]', 'yes'),
  ('Cc1ccc(-c2c(C(=O)NCc3ccncc3)nc3ccccn23)cc1 [Compound C19]', 'no'),
  ('CCCn1ccc2c(OCC(=O)Nc3ccc(OCC)cc3)cccc2c1=O [Compound C16]', 'no');

Lookup: Does the reported IC50 of the following compound sit strictly below 0.6 µM? O=C(c1ccco1)n1nc(-c2ccco2)nc1NCc1ccccc1 [Compound C4]
Found: no

Lookup: Does the reported IC50 of the following compound sit strictly below 0.6 µM? CCn1cnc2c(-c3ccccc3)cn(CC(=O)Nc3cccc(F)c3)c2c1=O [Compound C17]
Found: no

Lookup: Does the reported IC50 of the following compound sit strictly below 0.6 µM? O=C(Cc1csc(NC(=O)c2ccc3c(c2)OCO3)n1)NCCCc1ccccc1 [Compound C13]
Found: no

Lookup: Does the reported IC50 of the following compound sit strictly below 0.6 µM? Cc1cccc(NC(=O)Cc2csc(NC(=O)c3ccc4c(c3)OCO4)n2)c1 [Compound C14]
Found: no

Lookup: Does the reported IC50 of the following compound sit strictly below 0.6 µM? CCCCNC(=O)CCn1nc(-c2ccccc2)c2ccccc2c1=O [Compound C1]
Found: no

Lookup: Does the reported IC50 of the following compound sit strictly below 0.6 µM? CCCNc1cc(C)nc2c(C)c(-c3ccc(C)cc3)nn12 [Compound C10]
Found: yes

====

IC50 by entry:
measurement target: A2AAR (Homo sapiens, UniProt P29274)
Sequence (P29274 whole entry): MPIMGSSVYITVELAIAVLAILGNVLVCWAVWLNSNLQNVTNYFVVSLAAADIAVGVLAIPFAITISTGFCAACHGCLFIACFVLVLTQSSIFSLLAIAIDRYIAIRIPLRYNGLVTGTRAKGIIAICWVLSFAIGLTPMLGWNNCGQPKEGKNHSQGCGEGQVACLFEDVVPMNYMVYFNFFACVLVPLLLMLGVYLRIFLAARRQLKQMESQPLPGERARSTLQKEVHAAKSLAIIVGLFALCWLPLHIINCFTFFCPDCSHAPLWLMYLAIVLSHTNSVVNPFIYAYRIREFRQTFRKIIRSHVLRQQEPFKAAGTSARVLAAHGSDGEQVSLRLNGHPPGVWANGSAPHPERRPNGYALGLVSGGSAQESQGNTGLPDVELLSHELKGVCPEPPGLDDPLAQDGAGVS
protocol details: cAMP functional assay, HEK293-A2A cells
Format: cell-based
Parameters: host or cells: HEK293-A2A cells
run conditions: antagonism of NECA effect on cAMP, 5.08 × 10^−3 to 100 μM, read-out: cAMP assays (pIC50) A2A (converted)

Some solved cases for reference:
INSERT INTO assay_data (smiles_data, measurement_target, value_reported) VALUES
  ('Cc1ccccc1-c1nc(N)n(C(=O)Cc2ccccc2)n1', 'A2AAR (Homo sapiens, UniProt P29274)', '> 100 µM'),
  ('O=C(c1ccco1)n1nc(-c2ccco2)nc1NCc1ccccc1', 'A2AAR (Homo sapiens, UniProt P29274)', '> 100 µM'),
  ('CCCNc1cc(C)nc2c(C)c(-c3ccc(C)cc3)nn12', 'A2AAR (Homo sapiens, UniProt P29274)', '10 µM'),
  ('Nc1nc(-c2ccccc2Cl)nn1C(=O)c1cccc(Cl)c1', 'A2AAR (Homo sapiens, UniProt P29274)', '0.49 µM'),
  ('CCn1cnc2c(-c3ccccc3)cn(CC(=O)Nc3cccc(F)c3)c2c1=O', 'A2AAR (Homo sapiens, UniProt P29274)', '63.1 µM');

response.value for `Cc1ccc(-c2c(C(=O)NCc3ccncc3)nc3ccccn23)cc1` (field: IC50) = > 100 µM

response.value for `CC(=O)c1cccc(NC(=O)Nc2cc3c(cc2Oc2ccccc2)n(C)c(=O)n3C)c1` (field: IC50) = 7.94 µM
